- target entity: HSPB1ACD (α-crystallin domain of HSPB1) (human)
- Sequence (chain, as listed by the source): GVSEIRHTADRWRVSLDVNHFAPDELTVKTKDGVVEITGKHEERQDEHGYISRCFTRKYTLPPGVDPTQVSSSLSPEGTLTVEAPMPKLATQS
property measured: Kd
State the value with its unit after it.

Prompt line: Read the entry TFRTEIKI [HSPB7 C-terminal peptide (residues 168-175, TFRTEIKI)] and write its reported Kd.
Response line: 559 µM
